Parameter: mortality at 10 ppm. Scope: all listed entries.
Tested on: Southern Armyworm [Spodoptera eridania (Cramer)]
protocol: whole plant or invertebrate
Format: in vivo
condition.label: 48 h, read-out: % kill, Southern Armyworm 3rd Instar
property.measured: mortality at 10 ppm (%)

{"entry.smiles": "CC(C)C(=O)N1CC(C)(C)CN=C1NN=C(C=Cc1ccc(C(F)(F)F)cc1)C=Cc1ccc(C(F)(F)F)cc1", "measured": 0}
{"entry.smiles": "CC(=O)N1CC(C)(C)CN=C1N(N=C(C=Cc1ccc(C(F)(F)F)cc1)C=Cc1ccc(C(F)(F)F)cc1)C(C)=O", "measured": 0}
{"entry.smiles": "CCCCCCCC(=O)N1CC(C)(C)CN=C1NN=C(C=Cc1ccc(C(F)(F)F)cc1)C=Cc1ccc(C(F)(F)F)cc1", "measured": 0}

----------
Parameter: mortality at 10 ppm. Scope: all listed entries.
Tested on: Southern Armyworm [Spodoptera eridania (Cramer)]
protocol: whole plant or invertebrate
Type: in vivo
condition.label: 48 h, read-out: % kill, Southern Armyworm 3rd Instar

{"molecule": "CC1(C)CN=C(NN=C(C=Cc2ccc(C(F)(F)F)cc2)C=Cc2ccc(C(F)(F)F)cc2)N(C(=O)c2ccc(C(C)(C)C)cc2)C1", "mortality at 10 ppm / %": 0}
{"molecule": "CC1(C)CN=C(NN=C(C=Cc2ccc(C(F)(F)F)cc2)C=Cc2ccc(C(F)(F)F)cc2)N(C(=O)c2ccccc2)C1 [drawing 35]", "mortality at 10 ppm / %": 0}
{"molecule": "CCCCCC(=O)N1CC(C)(C)CN=C1NN=C(C=Cc1ccc(C(F)(F)F)cc1)C=Cc1ccc(C(F)(F)F)cc1 [R1=CF3, R3=n-C5 H11]", "mortality at 10 ppm / %": 0}
{"molecule": "CCCCC(=O)N1CC(C)(C)CN=C1NN=C(C=Cc1ccc(C(F)(F)F)cc1)C=Cc1ccc(C(F)(F)F)cc1 [R1=CF3, R3=n-C4 H9]", "mortality at 10 ppm / %": 0}

----------
System: Southern Armyworm [Spodoptera eridania (Cramer)]
protocol: whole plant or invertebrate
Format: in vivo
condition.label: 48 h, read-out: % kill, Southern Armyworm 3rd Instar
property.measured: mortality at 1000 ppm (%)

{"entry.smiles": "CC1(C)CN=C(NN=C(C=Cc2ccc(Cl)cc2)C=Cc2ccc(Cl)cc2)N(C(=O)c2ccccc2)C1", "unit.of.measurement": "%", "measured": 100}
{"entry.smiles": "CC(C)C(=O)N1CC(C)(C)CN=C1NN=C(C=Cc1ccc(C(F)(F)F)cc1)C=Cc1ccc(C(F)(F)F)cc1", "unit.of.measurement": "%", "measured": 100}
{"entry.smiles": "CCCCCCCCCCCC(=O)N1CC(C)(C)CN=C1NN=C(C=Cc1ccc(C(F)(F)F)cc1)C=Cc1ccc(C(F)(F)F)cc1", "unit.of.measurement": "%", "measured": 100}
{"entry.smiles": "CCCCCCCCCC(=O)N1CC(C)(C)CN=C1NN=C(C=Cc1ccc(C(F)(F)F)cc1)C=Cc1ccc(C(F)(F)F)cc1", "unit.of.measurement": "%", "measured": 100}
{"entry.smiles": "CCCCCCCCCCCCCC(=O)N1CC(C)(C)CN=C1NN=C(C=Cc1ccc(C(F)(F)F)cc1)C=Cc1ccc(C(F)(F)F)cc1", "unit.of.measurement": "%", "measured": 100}
{"entry.smiles": "CC(=O)N1CC(C)(C)CN=C1N(N=C(C=Cc1ccc(C(F)(F)F)cc1)C=Cc1ccc(C(F)(F)F)cc1)C(C)=O", "unit.of.measurement": "%", "measured": 100}
{"entry.smiles": "CC(C)=CC(=O)N1CC(C)(C)CN=C1NN=C(C=Cc1ccc(C(F)(F)F)cc1)C=Cc1ccc(C(F)(F)F)cc1", "unit.of.measurement": "%", "measured": 100}
